test system: Rattus norvegicus; conditions: acute; oral; gavage; Sprague-Dawley
API: label(entry) gives y if the entry's LD50 is strictly smaller than 3000 mg/kg; on equality or larger values it gives n.

compound	class_name
CCC(C)(N)C#N (stereo not drawn) [2-Amino-2-methyl-butyronitrile]	y
CC(C)CC(C)Nc1ccc(Nc2ccccc2)cc1 (stereo not drawn) [6PPD]	n
OC1CCCCC1 [Cyclohexanol]	y
CCCCN(CCCC)c1ccc(C(=O)c2ccccc2C(=O)O)c(O)c1 [2-[4-(Dibutylamino)-2-hydroxybenzoyl]benzoic acid]	n
O=S(=O)([O-])c1cc(Nc2nc(Nc3ccccc3)nc(N3CCOCC3)n2)ccc1C=Cc1ccc(Nc2nc(Nc3ccccc3)nc(N3CCOCC3)n2)cc1S(=O)(=O)[O-].[Na+].[Na+]	n
CCOP(=O)(CN(CCO)CCO)OCC [Diethyl (N,N-bis(2-hydroxyethyl)amino)methanephosphonate]	n
CC(C)N.CCCCCCCCCC(CC)c1ccc(S(=O)(=O)O)cc1 (stereo not drawn) [Isopropylammonium dodecylbenzenesulfonate]	y
c1ccc(-c2ccccc2)cc1 [Biphenyl]	n

* * *

Entries and their LD50 values follow.
system: Rattus norvegicus; conditions: acute; oral

molecule	comparative_sign	LD50, mg/kg
c1ccc2sc(SN3CCOCC3)nc2c1 [N-Oxydiethylene-2-benzothiazylsulfenamide]	=	7000
CC(C)N.CCCCCCCCCC(CC)c1ccc(S(=O)(=O)O)cc1 (configuration not stated) [Isopropylammonium dodecylbenzenesulfonate]	=	1840
CC(C)(C)c1cc(CCC(=O)NNC(=O)CCc2cc(C(C)(C)C)c(O)c(C(C)(C)C)c2)cc(C(C)(C)C)c1O	>	7000
CC(C)(CO)CO	=	3200
[Na+].[S-]c1nc2ccccc2s1 [Sodium 2-mercaptobenzothiolate]	=	4350
CC12CCCCC1C(=O)OC2=O (configuration not stated) [Methylhexahydrophthalic anhydride]	=	3300
O=[N+]([O-])c1ccc(C=Cc2ccc([N+](=O)[O-])cc2S(=O)(=O)[O-])c(S(=O)(=O)[O-])c1.[Na+].[Na+] [Disodium 4,4'-dinitro-2,2'-stilbenedisulfonate]	>	16000

* * *

Entries and their LD50 values follow.
test system: Rattus norvegicus; conditions: acute; oral; Sprague-Dawley

compound	assay_target	LD50
[S-]c1nc2ccccc2s1.[S-]c1nc2ccccc2s1.[Zn+2] [Zinc 2-mercaptobenzothiazolate]	Rattus norvegicus	5500 mg/kg
CC(C)CC(C)Nc1ccc(Nc2ccccc2)cc1 (centres undefined) [6PPD]	Rattus norvegicus	> 5000 mg/kg
O=S(=O)([O-])c1cc(Nc2nc(Nc3ccccc3)nc(N3CCOCC3)n2)ccc1C=Cc1ccc(Nc2nc(Nc3ccccc3)nc(N3CCOCC3)n2)cc1S(=O)(=O)[O-].[Na+].[Na+]	Rattus norvegicus	7000 mg/kg
CC(C)CC(C)(O)C#CC(C)(O)CC(C)C (centres undefined) [2,4,7,9-Tetramethyl-5-decyne-4,7-diol]	Rattus norvegicus	> 500 mg/kg

* * *

Entries and their LD50 values follow.
tested on: Rattus norvegicus; conditions: acute; oral; Sprague-Dawley
observable: LD50

> print(dat)
                                   compound    test.value
1  CC(C)(C)c1ccc(OP2OCC3(CO2)COP(Oc2ccc(C(C)(C)C)cc2C(C)(C)C)OC3)c(C(C)(C)C)c1 (stereo not given)    5580 mg/kg
2                       c1ccc(-c2ccccc2)cc1    2400 mg/kg
3               CC(C)(C)CC(C)(C)c1ccc(O)cc1  > 2000 mg/kg
4                                Clc1ccccc1    1540 mg/kg
5  COc1c(Cl)ccc(Cl)c1C(=O)[O-].[Na+] [Sodium dicamba]  > 1000 mg/kg
